Hello, the source for this data is the supplement of paper PMC8671470, in case you need it.

Recorded cell viability by entry
# System: HL-60
# experiment.notes: cell viability (% survival relative to DMSO control); higher = less cytotoxic
# recorded.conditions: 1 µM; 72 h; co-treatment: AZD3965 100 nM

// known answers, use as guide
Problem: Would you kindly share the measured cell viability for CO[C@H]1C[C@@H]2CC[C@@H](C)[C@@](O)(O2)C(=O)C(=O)N2CCCC[C@H]2C(=O)O[C@H]([C@H](C)C[C@@H]2CC[C@@H](OC(=O)C(C)(CO)CO)[C@H](OC)C2)CC(=O)[C@H](C)/C=C(\C)[C@@H](O)[C@@H](OC)C(=O)[C@H](C)C[C@H](C)/C=C/C=C/C=C/1C [Temsirolimus] ?
Solution: 92.3%

Problem: Would you kindly share the measured cell viability for CN(Cc1cnc2nc(N)nc(N)c2n1)c1ccc(C(=O)N[C@@H](CCC(=O)O)C(=O)O)cc1 [Methotrexate] ?
Solution: 26.3%

New cases:
Problem: Would you kindly share the measured cell viability for Cc1cc(C(=O)NNCc2ccccc2)no1 [Isocarboxazid] ?
Solution: 99%

---

# Tested on: BV-173
# recorded.conditions: 72 h
Recorded IC50 (cell viability) by entry

// known answers, use as guide
Problem: Would you kindly share the measured IC50 (cell viability) for Cc1cc(C(=O)NNCc2ccccc2)no1 ?
Solution: > 10 µM

Problem: Would you kindly share the measured IC50 (cell viability) for CN(CCOc1ccc(Cc2sc(O)nc2O)cc1)c1ccccn1 ?
Solution: > 10 µM

Problem: Would you kindly share the measured IC50 (cell viability) for O=c1cc(N2CCOCC2)oc2c(-c3ccccc3)cccc12 ?
Solution: 0.0237 µM

Now for another entry.
Problem: Would you kindly share the measured IC50 (cell viability) for N#C/C(=C\c1ccc(O)cc1)C(=O)O [alpha-cyano-4-hydroxycinnamic acid] ?
Solution: > 10 µM

---

# Tested on: MV4-11
# experiment.notes: cell viability (% survival relative to DMSO control, bortezomib = 0%); higher = less cytotoxic
# recorded.conditions: 1000 nM; 72 h
Counter-ions that a name gives are not always drawn.
// NB: equality with 90% counts as No; only cell viability strictly below is Yes

Problem: Consider O=c1c(-c2ccc(O)cc2)coc2cc(O[C@@H]3O[C@H](CO)[C@@H](O)[C@H](O)[C@H]3O)ccc12 [Daidzin] . Does its cell viability lie strictly below 90%?
Solution: No

Problem: Consider CN(CCOc1ccc(Cc2sc(O)nc2O)cc1)c1ccccn1 [Rosiglitazone] . Does its cell viability lie strictly below 90%?
Solution: No

Problem: Consider Cc1nc(-c2ccccc2)sc1C(=O)Nc1ccc(S(N)(=O)=O)cc1 . Does its cell viability lie strictly below 90%?
Solution: No

Problem: Consider CCCCCN(C)CCC(O)(P(=O)(O)O)P(=O)(O)O [Ibandronate] . Does its cell viability lie strictly below 90%?
Solution: Yes

Problem: Consider Cc1cc(C(=O)NNCc2ccccc2)no1 [Isocarboxazid] . Does its cell viability lie strictly below 90%?
Solution: Yes

Problem: Consider CCN(CCO)CCCC(C)Nc1ccnc2cc(Cl)ccc12 (stereo unspecified) [Hydroxychloroquine sulfate] . Does its cell viability lie strictly below 90%?
Solution: No

New cases:
Problem: Consider CCCCCOC(=O)Nc1nc(=O)n([C@@H]2O[C@H](C)[C@@H](O)[C@H]2O)cc1F [Capecitabine] . Does its cell viability lie strictly below 90%?
Solution: No

---

Recorded cell viability by entry
# Tested on: Mono-Mac-6
# experiment.notes: cell viability (% survival relative to DMSO control, bortezomib = 0%); higher = less cytotoxic
# recorded.conditions: 1000 nM; 72 h
Number only, in %; omit the unit.

Problem: Would you kindly share the measured cell viability for CCCCCCCC/C=C\CCCCCCCC(=O)Nc1ccccc1 [Octadec-9-Enoic Acid Phenylamide] ?
Solution: 99.5

Problem: Would you kindly share the measured cell viability for CCc1oc2ccccc2c1C(=O)c1cc(Br)c(O)c(Br)c1 [Benzbromarone] ?
Solution: 102

Problem: Would you kindly share the measured cell viability for O=C(NCCN1CCC(n2c(O)nc3ccccc32)CC1)c1cc2cc(F)ccc2[nH]1 [FIPI] ?
Solution: 70.6

Problem: Would you kindly share the measured cell viability for CC[C@H](C)[C@H](N)C(=O)N1CCSC1 [P32/98] ?
Solution: 103

Problem: Would you kindly share the measured cell viability for CO[C@H]1C[C@@H]2CC[C@@H](C)[C@@](O)(O2)C(=O)C(=O)N2CCCC[C@H]2C(=O)O[C@H]([C@H](C)C[C@@H]2CC[C@@H](OC(=O)C(C)(CO)CO)[C@H](OC)C2)CC(=O)[C@H](C)/C=C(\C)[C@@H](O)[C@@H](OC)C(=O)[C@H](C)C[C@H](C)/C=C/C=C/C=C/1C [Temsirolimus] ?
Solution: 35.1

Now for another entry.
Problem: Would you kindly share the measured cell viability for CN(Cc1cnc2nc(N)nc(N)c2n1)c1ccc(C(=O)N[C@@H](CCC(=O)O)C(=O)O)cc1 [Methotrexate] ?
Solution: 7.21

---

Recorded cell viability by entry
# System: NOMO-1
# experiment.notes: cell viability (% survival relative to DMSO control, bortezomib = 0%); higher = less cytotoxic
# recorded.conditions: 10000 nM; 72 h
Number only, in %; omit the unit.

Problem: Would you kindly share the measured cell viability for COC(=O)c1cc2c(C(F)(F)F)cc(-c3ccccc3)cc2n1O ?
Solution: 102

Problem: Would you kindly share the measured cell viability for Cc1cc(C(=O)NNCc2ccccc2)no1 ?
Solution: 92

Problem: Would you kindly share the measured cell viability for CN(Cc1cnc2nc(N)nc(N)c2n1)c1ccc(C(=O)N[C@@H](CCC(=O)O)C(=O)O)cc1 [Methotrexate] ?
Solution: 30.8

Now for another entry.
Problem: Would you kindly share the measured cell viability for Cn1cc(-c2ccncc2)c(-c2ccc(OCc3ccc4ccccc4n3)cc2)n1 ?
Solution: 93.9

---

# Test system: myeloid leukemia patient primary cells Pat.4
# experiment.notes: cell viability (% survival relative to DMSO control); higher = less cytotoxic
# recorded.conditions: 10 nM; 72 h
endpoint.name: cell viability (%)
Number only, in %; omit the unit.

// known answers, use as guide
Problem: Would you kindly share the measured cell viability for Cc1c2c(=O)n(-c3ccccc3Cl)[nH]c2cc(=O)n1Cc1ccccn1 ?
Solution: 90.8

Problem: Would you kindly share the measured cell viability for O=C1C(SCCO)=C(SCCO)C(=O)c2ccccc21 ?
Solution: 89.5

Problem: Would you kindly share the measured cell viability for CN(Cc1cnc2nc(N)nc(N)c2n1)c1ccc(C(=O)N[C@@H](CCC(=O)O)C(=O)O)cc1 [Methotrexate] ?
Solution: 87.6

Now for another entry.
Problem: Would you kindly share the measured cell viability for C=CCN(C)CCCCCCOc1ccc(C(=O)c2ccc(Br)cc2)c(F)c1.O=C(O)/C=C/C(=O)O [Ro 48-8071 fumarate] ?
Solution: 92

---

# Test system: BV-173
# experiment.notes: cell viability (% survival relative to DMSO control, bortezomib = 0%); higher = less cytotoxic
# recorded.conditions: 1000 nM; 72 h
Recorded cell viability by entry
Number only, in %; omit the unit.

// known answers, use as guide
Problem: Would you kindly share the measured cell viability for CC(=O)Nc1nc(C)c(-c2ccc(Cl)c(S(=O)(=O)NCCO)c2)s1 ?
Solution: 45.6

Problem: Would you kindly share the measured cell viability for CCOC(=O)c1sc(NC(=O)c2ccco2)c(SC#N)c1C ?
Solution: 105

Problem: Would you kindly share the measured cell viability for N#C/C(=C\c1ccc(O)cc1)C(=O)O [alpha-cyano-4-hydroxycinnamic acid] ?
Solution: 80.1

Problem: Would you kindly share the measured cell viability for O=C([O-])CC(O)(C(=O)[O-])C(O)C(=O)[O-].[K+].[K+].[K+] (stereo unspecified) [Hydroxycitrate] ?
Solution: 104

Problem: Would you kindly share the measured cell viability for Cc1c2c(=O)n(-c3ccccc3Cl)[nH]c2cc(=O)n1Cc1ccccn1 ?
Solution: 95.5

Problem: Would you kindly share the measured cell viability for c1cc(-c2cnn3cc(-c4ccc(OCCN5CCCCC5)cc4)cnc23)ccn1 ?
Solution: 90.1

Problem: Would you kindly share the measured cell viability for CN(CCOc1ccc(Cc2sc(O)nc2O)cc1)c1ccccn1 ?
Solution: 97.7

Problem: Would you kindly share the measured cell viability for O=C(NCCN1CCC(n2c(O)nc3ccccc32)CC1)c1cc2cc(F)ccc2[nH]1 ?
Solution: 99.3

New cases:
Problem: Would you kindly share the measured cell viability for Cc1c(Cl)cccc1S(=O)(=O)Nc1nc(CC(=O)N2CCN(C)CC2)cs1 ?
Solution: 93.3

Problem: Would you kindly share the measured cell viability for O=c1cc(N2CCOCC2)oc2c(-c3ccccc3)cccc12 ?
Solution: 95.6

Problem: Would you kindly share the measured cell viability for CC(C)CC(=O)N[C@H](C(=O)N[C@H](C(=O)N[C@@H](CC(C)C)[C@@H](O)CC(=O)N[C@@H](C)C(=O)N[C@@H](CC(C)C)[C@@H](O)CC(=O)O)C(C)C)C(C)C ?
Solution: 101

---

# Tested on: myeloid leukemia patient primary cells Pat.7
# experiment.notes: area under dose-response curve (viability, 1 nM-10 uM) (fraction (0-1)); higher = more sensitive
# recorded.conditions: 72 h
endpoint.name: area under dose-response curve

// known answers, use as guide
Problem: Would you kindly share the measured area under dose-response curve for O=c1cc(N2CCOCC2)oc2c(-c3ccccc3)cccc12 ?
Solution: < 0.0301

Problem: Would you kindly share the measured area under dose-response curve for Cc1c2c(=O)n(-c3ccccc3Cl)[nH]c2cc(=O)n1Cc1ccccn1 ?
Solution: < 0.0301

Now for another entry.
Problem: Would you kindly share the measured area under dose-response curve for Cc1[nH]nc(C(F)(F)F)c1Cc1sc2c(c1C(=O)N1C[C@](C)(O)CO1)c(=O)n(C)c(=O)n2C(C)C ?
Solution: < 0.0301
